List of Ki tested on 5-hydroxytryptamine receptor 1B (Homo sapiens).
Sequence (P28222 whole entry): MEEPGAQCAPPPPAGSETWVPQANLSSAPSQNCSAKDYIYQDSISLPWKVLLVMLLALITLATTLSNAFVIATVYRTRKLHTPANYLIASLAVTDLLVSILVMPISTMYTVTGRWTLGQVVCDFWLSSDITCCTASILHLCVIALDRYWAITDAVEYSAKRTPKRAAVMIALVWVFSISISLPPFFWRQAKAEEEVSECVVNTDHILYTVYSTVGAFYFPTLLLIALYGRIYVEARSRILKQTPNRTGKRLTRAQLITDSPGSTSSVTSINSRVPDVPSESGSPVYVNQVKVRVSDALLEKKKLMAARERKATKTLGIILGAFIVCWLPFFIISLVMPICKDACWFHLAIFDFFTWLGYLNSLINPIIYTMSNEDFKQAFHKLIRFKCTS
measurement_type: Ki (nM)

>>> assay_result("O=C(/C=C/c1ccccc1)N(Cc1ccc(-c2ccc(CNCCc3ccccc3)cc2)cc1)Cc1cccnc1")
631
>>> assay_result("CN(C)CCN(Cc1ccc(-c2ccc(CNCCc3ccccc3)cc2)cc1)C(=O)/C=C/c1ccccc1")
631

---

# measurement_notes: Half life in guinea pig at a dose of 3 mg/kg upon subcutaneous administration
# Assay type: ADME, organism-based, Cavia porcellus
# Parameters: dose 3 mg/kg, route subcutaneous
# details: in vivo, sc
measurement_type: half-life (h)
Value expressed in h; do not type the unit.

Fill blank: measured half-life of the compound CN(C)CCN(Cc1ccc(-c2ccc(CNCCc3ccccc3)cc2)cc1)C(=O)CCC1CCCC1.Cl.Cl is ____. 2.2

---

# study_system: UniProt P35462
# Sequence (P35462 whole entry): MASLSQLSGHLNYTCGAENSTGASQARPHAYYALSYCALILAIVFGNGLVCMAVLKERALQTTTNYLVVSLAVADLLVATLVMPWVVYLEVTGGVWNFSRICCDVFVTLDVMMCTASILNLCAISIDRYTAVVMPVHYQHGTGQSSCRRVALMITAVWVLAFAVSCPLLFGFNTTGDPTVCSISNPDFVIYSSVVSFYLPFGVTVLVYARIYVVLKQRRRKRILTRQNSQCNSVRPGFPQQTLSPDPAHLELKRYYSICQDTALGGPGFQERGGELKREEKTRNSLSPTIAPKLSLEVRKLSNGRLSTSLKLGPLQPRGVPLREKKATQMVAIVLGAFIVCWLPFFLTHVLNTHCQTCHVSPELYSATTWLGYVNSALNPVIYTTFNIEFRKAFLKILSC
measurement_type: Ki (µM)
Value expressed in µM; do not type the unit.

What is its Ki for UniProt P35462? Entry: O=C(/C=C/c1ccccc1)N(Cc1ccc(-c2ccc(CNCCc3ccccc3)cc2)cc1)Cc1cccnc1 1.58

---

# measurement_notes: Peak blood concentration in guinea pig at a dose of 3 mg/kg upon oral administration
# Type: ADME, organism-based, Cavia porcellus
# Parameters: dose 3 mg/kg, route oral
measurement_type: Cmax (ng/mL)
Value expressed in ng/mL; do not type the unit.

Fill blank: measured Cmax of the compound CN(C)CCN(Cc1ccc(-c2ccc(CNCCc3ccccc3)cc2)cc1)C(=O)CCC1CCCC1.Cl.Cl is ____. 20

---

# measurement_notes: Half life in guinea pig at a dose of 1 mg/kg upon intravenous administration
# Type: ADME, organism-based, Cavia porcellus
# Design: dose 1 mg/kg, route intravenous
# details: in vivo
measurement_type: half-life (h)
Value expressed in h; do not type the unit.

Fill blank: measured half-life of the molecule CN(C)CCN(Cc1ccc(-c2ccc(CNCCc3ccccc3)cc2)cc1)C(=O)CCC1CCCC1.Cl.Cl is ____. 3.5

---

Protein target, amino acids: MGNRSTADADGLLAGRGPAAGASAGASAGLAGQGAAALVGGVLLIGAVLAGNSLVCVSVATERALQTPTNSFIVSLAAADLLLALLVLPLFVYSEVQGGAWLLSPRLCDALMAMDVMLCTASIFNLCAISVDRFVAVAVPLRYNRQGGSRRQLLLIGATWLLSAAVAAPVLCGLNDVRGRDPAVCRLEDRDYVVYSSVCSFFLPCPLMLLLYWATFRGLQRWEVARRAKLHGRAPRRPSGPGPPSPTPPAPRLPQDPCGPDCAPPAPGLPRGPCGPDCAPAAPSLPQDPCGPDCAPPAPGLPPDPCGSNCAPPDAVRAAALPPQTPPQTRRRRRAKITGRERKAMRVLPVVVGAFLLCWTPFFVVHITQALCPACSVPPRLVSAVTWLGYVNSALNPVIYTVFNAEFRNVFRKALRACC
measurement_type: Ki (µM)

>>> assay_result("O=C(/C=C/c1ccccc1)N(Cc1ccc(-c2ccc(CNCCc3ccccc3)cc2)cc1)Cc1cccnc1")
1.58
>>> assay_result("CN(C)CCN(Cc1ccc(-c2ccc(CNCCc3ccccc3)cc2)cc1)C(=O)/C=C/c1ccccc1")
1.26

---

List of Ki tested on Alpha-1B adrenergic receptor (Homo sapiens, UniProt P35368).
Sequence (P35368 whole entry): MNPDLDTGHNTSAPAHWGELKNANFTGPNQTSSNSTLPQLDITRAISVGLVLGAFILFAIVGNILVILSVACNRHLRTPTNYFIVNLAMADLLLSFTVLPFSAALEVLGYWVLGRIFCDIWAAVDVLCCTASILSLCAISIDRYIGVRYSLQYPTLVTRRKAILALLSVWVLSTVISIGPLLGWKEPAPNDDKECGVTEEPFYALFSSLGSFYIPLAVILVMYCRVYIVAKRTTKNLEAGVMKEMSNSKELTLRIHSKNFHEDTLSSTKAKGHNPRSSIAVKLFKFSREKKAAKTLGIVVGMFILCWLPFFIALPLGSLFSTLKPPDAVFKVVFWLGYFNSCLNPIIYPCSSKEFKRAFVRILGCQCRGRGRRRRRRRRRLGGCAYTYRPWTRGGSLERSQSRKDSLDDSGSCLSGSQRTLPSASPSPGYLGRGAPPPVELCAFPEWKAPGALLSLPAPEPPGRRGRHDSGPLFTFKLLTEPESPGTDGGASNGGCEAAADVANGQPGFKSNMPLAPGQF
measurement_type: Ki (nM)

>>> assay_result("O=C(/C=C/c1ccccc1)N(Cc1ccc(-c2ccc(CNCCc3ccccc3)cc2)cc1)Cc1cccnc1")
316

a. CN(C)CCN(Cc1ccc(-c2ccc(CNCCc3ccccc3)cc2)cc1)C(=O)CCC1CCCC1
b. CN(C)CCN(Cc1ccc(-c2ccc(CNCCc3ccccc3)cc2)cc1)C(=O)/C=C/c1ccccc1
Just curious, which one has the larger Ki reading, a or b ? Answer by quoting the chosen item's label. a
(a: 316 nM, b: 200 nM)

Data origin: ChEMBL document CHEMBL1142810
